ASSAY_NOTES: qHTS assay to identify small molecule antagonists of the retinoid acid receptor (RAR) signaling pathway - cell viability counter screen (AID 1159551); also: nearly all actives have a fitted effect of over 35% in size
CONDITION_SUMMARY: C3RL4 cells viability, ATP luminescence (CellTiter-Glo), 6 h; series mostly up to 92.4 µM
Records with an inconclusive call do not appear. Activity calls are given as the source filed them. Calls follow the shape of the dose curve; as a rule, active = well fitted cell-killing curve with a large enough effect in the repeat runs; inconclusive = weak or mixed curves, or effect the other way; inactive = flat fitted curve, though single readings scatter.
READOUT: activity change, negative = cytotoxicity

Examples with their reported activity change, negative = cytotoxicity follow.
CC1CCC(C(C)CS)CC1S (stereo not drawn)	inactive
COc1cc(NCc2ccc3nc(N)nc(N)c3c2C)cc(OC)c1OC	inactive
CC(C)N=C=NC(C)C	inactive
CCCCCCCCCCCCCCCCCC(=O)OCC(CC)CCCC (stereo not drawn)	inactive
COC(C)(C)OC	inactive
CC1CCCC(=O)C1=O (stereo not drawn)	inactive
CC(=O)C(C)=O	inactive

What value of activity change, negative = cytotoxicity has been recorded for this entry: CCN(CC)c1cccc(O)c1
inactive

###

ASSAY_NOTES: qHTS assay to identify small molecule antagonists of the farnesoid-X-receptor (FXR) signaling pathway - cell viability counter screen (AID 743221); also: nearly all actives have a fitted effect of over 50% in size
CONDITION_SUMMARY: FXR-bla HEK293T viability, CellTiter-Glo luminescence, 16 h; series mostly up to 62.6 µM
Inconclusive results are not listed. Calls of active or inactive are those of the source. The call rests on the fitted dose curve; in most records, active means well fitted cell-killing curve with a large enough effect in the repeat runs (not every such curve was filed as active); inconclusive means weak or mixed curves, or effect the other way; inactive means no such curve, though single readings can be large or run the other way.
Choose the fitting class; nothing outside True (active), False (inactive) is accepted.

Test call, this molecule: CCCCCCC(O)CCCCCCCCCCC(=O)OC (stereo unspecified)
False

Test call, this molecule: CC[C@H]1OC(=O)[C@H](C)[C@@H](O[C@H]2C[C@@](C)(OC)[C@@H](O)[C@H](C)O2)[C@H](C)[C@@H](O[C@@H]2O[C@H](C)C[C@H](N(C)C)[C@H]2O)[C@](C)(O)C[C@@H](C)CN(C)[C@H](C)[C@@H](O)[C@]1(C)O
False

Test call, this molecule: CCOC(=O)c1c(N)sc2c1CCN(Cc1ccccc1)C2
False

Test call, this molecule: CC(=O)OCCC1CCCCC1
False

Test call, this molecule: C1CCCCC1
False

Test call, this molecule: O=S(=O)(Cl)c1c(Cl)cccc1Cl
False

Test call, this molecule: CCSC(=O)N(CC)CC
False

Test call, this molecule: CCCCCCCCCCCCCCN(C)C
False

Test call, this molecule: CNS(=O)(=O)c1cc(C(=O)N2CCC(CCN3C4CCC3CC(n3c(C)nc5ccccc53)C4)(c3cccc(F)c3)CC2)c(Cl)cc1F (stereo unspecified)
True

Test call, this molecule: CCCCCc1ccco1
False

Test call, this molecule: CCCCCCCC(=O)Oc1c(Br)cc(C#N)cc1Br
False

###

ASSAY_NOTES: qHTS assay to identify small molecule agonists of the farnesoid-X-receptor (FXR) signaling pathway - cell viability counter screen (AID 743218); also: nearly all actives have a fitted effect of over 45% in size
CONDITION_SUMMARY: FXR-bla HEK293T viability, CellTiter-Glo luminescence, 16 h; series mostly up to 62.6 µM
Records with an inconclusive call do not appear. Active and inactive are the calls of the source. Calls come from the whole dose curve; as a rule, active = well fitted cell-killing curve with a large enough effect in the repeat runs; inconclusive = weak or mixed curves, or effect the other way; inactive = no such curve, though single readings can be large or run the other way.
Choose the fitting class; nothing outside Y for active, N for inactive is accepted.

Test call, this compound: CC(C)COC(=O)c1ccc(O)cc1
N

Test call, this compound: c1ccc(CCCc2ccncc2)cc1
N

Test call, this compound: CC(=O)C(=O)CC(C)C
N

Test call, this compound: C=C(C)C(=O)OCCC(F)(F)C(F)(F)C(F)(F)C(F)(F)C(F)(F)C(F)(F)F
N

Test call, this compound: CC1CCCC(=O)C1=O (centres undefined)
N

Test call, this compound: CCOC(=O)N1CCC(Nc2ccc(Cl)cc2N)CC1
N

Test call, this compound: O=C(c1ccccc1)c1ccc(O)cc1
N

Test call, this compound: CCCCCCC(O)CCCCCCCCCCC(=O)OC (centres undefined)
N

Test call, this compound: Cc1c(C2(c3cc(Br)c(O)c(Br)c3C)OS(=O)(=O)c3ccccc32)cc(Br)c(O)c1Br
Y

Test call, this compound: CC1C(C)(C)C2=C(C(=O)CCC2)C1(C)C (centres undefined)
N

Test call, this compound: CC(=O)OC(C)C[N+](C)(C)C (centres undefined)
N

Test call, this compound: O=P(O)(O)Oc1ccccc1
N

Test call, this compound: CC(O)Cn1cnc2c1c(=O)n(C)c(=O)n2C (centres undefined)
N

Test call, this compound: C=CC(=O)O
N

###

ASSAY_NOTES: A CellTox Green Cytotoxicity Assay to monitor cytotoxicity in HEK293 cells - 16 hour (AID 1224888); also: nearly all actives have a fitted effect of over 35% in size
CONDITION_SUMMARY: CellTox Green fluorescence; series mostly up to 76.8 µM
Description: National Center for Advancing Translational Sciences [NCATS] NIH Chemical Genomics Center [NCGC] U.S. Environmental Protection Agency [EPA] National Institutes of Environmental Health Sciences [NIEHS] National Toxicology Program [NTP] Cell-based models are critical for drug discovery. […] Viable cells produce no appreciable increases in fluorescence. Therefore, the fluorescence signal produced by the binding interaction with dead cell DNA is proportional to cytotoxicity. […]
Inconclusive results are not listed. Calls of active or inactive are those of the source. Calls follow the shape of the dose curve; as a rule, active = well fitted activation curve with a large enough effect in the repeat runs; inconclusive = weak or mixed curves; inactive = flat fitted curve, though single readings scatter.
Choose the fitting class; nothing outside label 1 for active, label 0 for inactive is accepted.

Test call, this compound: CC1=CC[C@@]23C[C@@H]1C(C)(C)[C@@H]2CC[C@H]3C
label 0

Test call, this compound: CCC(C)(C)C(=O)O
label 0

Test call, this compound: C=CCOC(=O)COCCC(C)C
label 0

Test call, this compound: CCC(CO)(CO)[N+](=O)[O-]
label 0

Test call, this compound: CC1=C2[C@@H]([C@H](C)CC[C@H]2/C=C(\C)C(=O)O)[C@H](O)C1
label 0

Test call, this compound: CC(=O)OCC(=O)[C@@]1(OC(C)=O)[C@@H](C)C[C@H]2[C@@H]3C[C@H](F)C4=CC(=O)C=C[C@]4(C)[C@@]3(F)[C@@H](O)C[C@@]21C
label 0

Test call, this compound: CC[C@H]1OC(=O)[C@H](C)[C@@H](O[C@H]2C[C@@](C)(OC)[C@@H](O)[C@H](C)O2)[C@H](C)[C@@H](O[C@@H]2O[C@H](C)C[C@H](N(C)C)[C@H]2O)[C@](C)(O)C[C@@H](C)/C(=N\OCOCCOC)[C@H](C)[C@@H](O)[C@]1(C)O
label 0

Test call, this compound: CC(=O)OCCC1CCCCC1
label 0

Test call, this compound: CC1CCCO1 (stereo not given)
label 0

Test call, this compound: O=c1[nH][nH]c(=O)c2cc([N+](=O)[O-])ccc12
label 0

Test call, this compound: Cc1ccc2c(c1[N+](=O)[O-])C(=O)c1ccccc1C2=O
label 0

Test call, this compound: CN=C(N)NC(=O)Nc1c(C)cccc1C
label 0

Test call, this compound: O=C(O)CCS
label 0

Test call, this compound: CC[C@@H](CO)NCCN[C@@H](CC)CO
label 0

Test call, this compound: Cc1c[nH]c2ccccc12
label 0

Test call, this compound: [Cl][Nd]([Cl])[Cl]
label 0

Test call, this compound: C=CC(=O)O
label 0

Test call, this compound: OCC(CO)n1cnc(-c2ccc(F)cc2)c1-c1ccnc(Oc2ccccc2)n1
label 0

Test call, this compound: O=C(c1ccccc1)C1CCC1
label 1

Test call, this compound: O=C1c2ccccc2C(=O)c2c(O)ccc(O)c21
label 1

Test call, this compound: CC/C=C\C/C=C\C/C=C\CCCCCCCC(=O)OCC
label 0

Test call, this compound: CCCCCCCC/C=C\CCCCCCCC(=O)OCCO
label 0

Test call, this compound: COc1ccc(C(=O)NCc2ccc(OCCN(C)C)cc2)cc1OC
label 0

Test call, this compound: CC(C)(C(=O)c1cccnc1)c1cccnc1
label 0

Test call, this compound: CC(CN(CCN(CC(C)OCCO)CC(C)OCCO)CC(C)OCCO)OCCO (stereo not given)
label 0

###

ASSAY_NOTES: qHTS assay to identify small molecule antagonists of the farnesoid-X-receptor (FXR) signaling pathway - cell viability counter screen (AID 743221); also: nearly all actives have a fitted effect of over 50% in size
CONDITION_SUMMARY: FXR-bla HEK293T viability, CellTiter-Glo luminescence, 16 h; series mostly up to 62.6 µM
Inconclusive results are not listed. Activity calls are given as the source filed them. Calls come from the whole dose curve; as a rule, active = well fitted cell-killing curve with a large enough effect in the repeat runs (not every such curve was filed as active); inconclusive = weak or mixed curves, or effect the other way; inactive = no such curve, though single readings can be large or run the other way.
Choose the fitting class; nothing outside active, inactive is accepted.

Test call, this compound: Cc1ccc(Cl)cc1N
inactive

Test call, this compound: Cc1ccc2c(c1)CCCN2
inactive

Test call, this compound: Cc1ccccc1S(N)(=O)=O
inactive

Test call, this compound: Cc1ccc2c(c1[N+](=O)[O-])C(=O)c1ccccc1C2=O
inactive

Test call, this compound: CN1CCCN(C(c2ccccc2)c2ccc(Cl)cc2)CC1 (stereo not drawn)
active

Test call, this compound: Nc1ccc(NC(=O)c2ccc(N)cc2)cc1
inactive

Test call, this compound: CC(=O)OC(C)C[N+](C)(C)C (stereo not drawn)
inactive

Test call, this compound: C/C(C=O)=C\c1ccccc1
inactive

Test call, this compound: C[C@@H]1C[C@H]2[C@@H]3CCC4=CC(=O)C=C[C@]4(C)[C@@]3(F)[C@@H](O)C[C@]2(C)[C@@]1(O)C(=O)COP(=O)(O)O
inactive

Test call, this compound: O[C@@H](CNC[C@H](O)[C@H]1CCc2cc(F)ccc2O1)[C@@H]1CCc2cc(F)ccc2O1
active

Test call, this compound: O=C(O)c1ccc(O)cc1O
inactive

Test call, this compound: CC(C)CC(O)CC(C)C
inactive

Test call, this compound: COc1ccc(CCN(C)CCCN2CCc3cc(OC)c(OC)cc3CC2=O)cc1OC
inactive
